- Test system: 699152-130-R-J1-PDC complex spheroid growth
- assaySummary: Anticancer human tumor 699152-130-R-J1-PDC patient-derived pancreatic carcinoma cell line growth inhibition [AhR]
- experimentalSetup: second compound 0.316 µM; first compound 0.1 µM; stronger effect = lower value
endpoint: viability, T/C (%)

compound="Nc1ncn(C2CC(O)C(CO)O2)c(=O)n1 (configuration not stated) + Cc1ccccc1N=Nc1ccc(NC(=O)c2ccnn2C)c(C)c1" valuemeasured=90.5
compound="Nc1ccn(C2OC(CO)C(O)C2(F)F)c(=O)n1 (configuration not stated) + CC(CO)NC(=O)c1cc(-c2ccc(Cl)cc2)nn(-c2cnn(C)c2)c1=O" valuemeasured=73.1
compound="NS(=O)(=O)OCC1CC(n2ccc3c(NC4CCc5ccccc54)ncnc32)CC1O (configuration not stated) + Cc1cncc(-c2nc(NCCc3c[nH]c4ccccc34)c3ncn(C(C)C)c3n2)c1" valuemeasured=132
compound="CC1COCCN1c1cc(-c2ccnn2C)c2ccnc(-c3ccn[nH]3)c2n1 (configuration not stated) + CC(CO)NC(=O)c1cc(-c2ccc(Cl)cc2)nn(-c2cnn(C)c2)c1=O" valuemeasured=92.1
compound="O=C(C=Cc1cccc(S(=O)(=O)Nc2ccccc2)c1)NO + Cc1ccccc1N=Nc1ccc(NC(=O)c2ccnn2C)c(C)c1" valuemeasured=99.4
compound="NS(=O)(=O)OCC1CC(n2ccc3c(NC4CCc5ccccc54)ncnc32)CC1O (configuration not stated) + Cc1ccccc1N=Nc1ccc(NC(=O)c2ccnn2C)c(C)c1" valuemeasured=103
compound="Cn1ncnc1C1c2n[nH]c(=O)c3cc(F)cc(c23)NC1c1ccc(F)cc1 (configuration not stated) + Cc1ccccc1N=Nc1ccc(NC(=O)c2ccnn2C)c(C)c1" valuemeasured=80.1

###

- Tested on: 699152-130-R-J1-PDC complex spheroid growth
- assaySummary: Anticancer human tumor 699152-130-R-J1-PDC cell line growth inhibition [AhR];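 further: compound exposure lasted 7 days after spheroids had grown for 3 days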
- experimentalSetup: second compound 1 µM; first compound 0.03 µM; stronger effect = lower value
Listing: viability, T/C of selected molecules
endpoint: viability, T/C (%)

molecule="CC(C)CC(NC(=O)C(Cc1ccccc1)NC(=O)c1cnccn1)B(O)O (stereo unspecified) + Cc1ccccc1N=Nc1ccc(NC(=O)c2ccnn2C)c(C)c1" quantityunit=% valuemeasured=0.79
molecule="O=C(C=Cn1cnc(-c2cc(C(F)(F)F)cc(C(F)(F)F)c2)n1)NNc1cnccn1 + Cc1ccccc1N=Nc1ccc(NC(=O)c2ccnn2C)c(C)c1" quantityunit=% valuemeasured=90.8
molecule="CCN(c1cc(-c2ccc(CN3CCOCC3)cc2)cc(C(=O)NCc2c(C)cc(C)[nH]c2=O)c1C)C1CCOCC1 + Cc1cncc(-c2nc(NCCc3c[nH]c4ccccc34)c3ncn(C(C)C)c3n2)c1" quantityunit=% valuemeasured=116
molecule="CC(C)CC(NC(=O)C(Cc1ccccc1)NC(=O)c1cnccn1)B(O)O (stereo unspecified) + Cc1cncc(-c2nc(NCCc3c[nH]c4ccccc34)c3ncn(C(C)C)c3n2)c1" quantityunit=% valuemeasured=0.8
molecule="CCN(c1cc(-c2ccc(CN3CCOCC3)cc2)cc(C(=O)NCc2c(C)cc(C)[nH]c2=O)c1C)C1CCOCC1 + CC(CO)NC(=O)c1cc(-c2ccc(Cl)cc2)nn(-c2cnn(C)c2)c1=O" quantityunit=% valuemeasured=106
molecule="Nc1ncn(C2CC(O)C(CO)S2)c(=O)n1 (stereo unspecified) + Cc1ccccc1N=Nc1ccc(NC(=O)c2ccnn2C)c(C)c1" quantityunit=% valuemeasured=107
